Taken from patent US6313114A.

target: UniProt P08908
Sequence (P08908 whole entry): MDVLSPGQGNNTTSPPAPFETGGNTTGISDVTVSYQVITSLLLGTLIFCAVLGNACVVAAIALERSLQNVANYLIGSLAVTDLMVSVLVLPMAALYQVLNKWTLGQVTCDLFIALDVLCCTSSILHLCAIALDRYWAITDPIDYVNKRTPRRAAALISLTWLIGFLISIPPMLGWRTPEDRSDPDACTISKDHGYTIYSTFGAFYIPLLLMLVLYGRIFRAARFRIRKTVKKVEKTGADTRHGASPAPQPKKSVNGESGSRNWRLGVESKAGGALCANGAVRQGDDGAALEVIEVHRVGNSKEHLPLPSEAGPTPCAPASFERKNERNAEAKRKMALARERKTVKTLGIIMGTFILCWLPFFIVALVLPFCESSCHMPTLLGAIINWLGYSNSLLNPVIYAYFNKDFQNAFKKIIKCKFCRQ

molecule	experimental target	unit of measurement	Ki
c1ccc(CN2CC(CNCCCCc3c[nH]c4ccccc34)Oc3ccccc32)cc1 (stereo not shown) [Example 4]	UniProt P08908	nM	76.1

----------
target: serotonin transporter (Rattus norvegicus, UniProt P31652); construct: frontal cortical membranes prepared from male Sprague-Dawley rats; from tissue; host or cells: frontal cortical membranes of male Sprague-Dawley rats; experiment: 3H-paroxetine binding to serotonin transporter in rat frontal cortical membranes; set-up: species or system male Sprague-Dawley rats
Sequence (P31652 whole entry): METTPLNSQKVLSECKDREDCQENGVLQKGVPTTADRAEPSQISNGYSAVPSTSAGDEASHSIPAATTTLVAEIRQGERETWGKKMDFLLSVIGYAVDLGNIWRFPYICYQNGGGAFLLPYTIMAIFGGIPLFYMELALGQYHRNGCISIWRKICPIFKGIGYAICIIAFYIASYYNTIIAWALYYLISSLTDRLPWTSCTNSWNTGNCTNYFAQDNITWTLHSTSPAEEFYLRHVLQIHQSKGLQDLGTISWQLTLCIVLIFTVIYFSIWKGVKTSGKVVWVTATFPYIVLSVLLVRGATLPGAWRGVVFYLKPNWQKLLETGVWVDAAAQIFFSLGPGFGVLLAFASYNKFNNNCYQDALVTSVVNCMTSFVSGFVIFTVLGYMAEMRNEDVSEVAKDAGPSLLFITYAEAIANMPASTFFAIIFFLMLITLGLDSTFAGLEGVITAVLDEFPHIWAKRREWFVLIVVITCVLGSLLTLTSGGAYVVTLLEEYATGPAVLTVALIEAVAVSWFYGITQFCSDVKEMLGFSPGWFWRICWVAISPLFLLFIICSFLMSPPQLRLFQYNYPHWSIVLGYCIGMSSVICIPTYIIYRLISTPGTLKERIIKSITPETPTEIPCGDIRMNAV
pKi: −log10 of the molar value.

compound	pKi
c1ccc(CN2CC(CNCCCCc3c[nH]c4ccccc34)Oc3ccccc32)cc1 (stereo not shown)	7.09
